Documented pIC50 across a set of compounds
# systemTested: human JAK1 kinase domain (JH1) (Homo sapiens)
# Construct: recombinantly generated catalytic kinase (also known as JH1) domain of human JAK1, JAK2, JAK3 and TYK2
# Sequence (P23458 875-1153 limits assumed): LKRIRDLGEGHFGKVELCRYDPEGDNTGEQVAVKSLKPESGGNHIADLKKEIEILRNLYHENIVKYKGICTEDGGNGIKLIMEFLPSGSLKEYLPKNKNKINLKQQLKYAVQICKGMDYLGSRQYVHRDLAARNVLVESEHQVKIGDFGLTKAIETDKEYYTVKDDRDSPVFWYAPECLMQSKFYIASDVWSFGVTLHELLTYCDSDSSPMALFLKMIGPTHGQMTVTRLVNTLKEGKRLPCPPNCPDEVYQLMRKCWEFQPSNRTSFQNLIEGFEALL
# measurementNotes: JH1 biochemical assay for JAK1 (ADP-Glo kinase assay, recombinant JH1 catalytic domain, JAK3-342 peptide, 35 μM ATP)
# conditionSummary: JH1 kinase domain, ADP-Glo
pIC50: −log10 of the molar value. Counter-ions that a name gives are not always drawn.

Take a look at these entries with their results.
compound: Cc1nn(C)cc1-c1cc2c(N3C[C@@H](C)[C@@](C#N)(C4CC4)C3=O)ccnn2c1 [Example 165]
reportedMeasurement: 6.00 to 7.00
--
compound: C[C@@H]1CN(c2nc(-c3cnc4c(c3)CC(=O)N4)cn3nccc23)C(=O)[C@]1(C#N)C1CC1 [Example 205]
reportedMeasurement: > 7.00
--
compound: C[C@@H]1CN(c2ccnn3cc(-c4nc5ccccn5n4)cc23)C(=O)[C@]1(C#N)C1CC1 [Example 108, trifluoroacetate]
reportedMeasurement: 5.30 to 6.00

Consider the additional compound presented here.
Lab note: C[C@@H]1CN(c2ccnn3cc(-c4cn(C)cn4)cc23)C(=O)[C@]1(C#N)C1CC1 [Example 111, trifluoroacetate] gave pIC50 of 6.00 to 7.00
